Protocol details: blockers of RIG-like receptor reporter activation – cell-based, Sendai virus stimulus, luciferase, 10K MLSCN set, TLR/RLR signaling modifier project, primary screen (AID 602276);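 further: firefly luciferase from ISG56 promoter only with Renilla not read in this screen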
Protocol conditions: HEK293 RL24 IRF3 luciferase reporter, at 10 µM, stronger effect = higher value
Respond with Yes for inhibition values of 10% and above, No for values below.

| Compound | Assigned category |
| --- | --- |
| CCSc1nnc(N2C(=O)CC(c3ccsc3)C3=C2CC(C)(C)CC3=O)s1 (stereo not drawn) | Yes |
| O=C(NC1=NCCS1)c1ccc2c(c1)C(=O)N(Cc1ccco1)C2=O | Yes |
| Cc1cc(N)n2nc(-c3ccccc3)cc2n1 | No |
| CCOC(=O)C(NC(=O)CC)(Nc1ccc(S(=O)(=O)Nc2onc(C)c2C)cc1)C(F)(F)F (stereo not drawn) | Yes |
| CCC(=O)c1ccc(OCCN2CCOCC2)cc1 | No |
| CCCCn1nnnc1NCc1cccs1 | No |
| CC1=C(C(=O)OC(C)C)C(C2CC=CCC2)NC(=O)N1 (stereo not drawn) | No |
| COc1ccc(NC(=O)c2cnc3n(c2=O)CCS3)cc1OC | No |
| CC(=O)c1c(O)cc(C)n(Nc2nc(C)cc(C)n2)c1=O | No |
| Cc1cc(S(=O)(=O)N2CCN(c3ncccn3)CC2)ccc1-n1cnnn1 | No |
| Cc1ccc(-c2cc(C(F)F)n3ncc(C(=O)N4CCN(c5ccccn5)CC4)c3n2)cc1 | Yes |
| Cc1cccc(-n2c(SCc3cc(=O)n4ccsc4n3)nc3ccccc32)c1 | No |
| COc1cc(CNc2ccc(N3CCOCC3)c(C(=O)O)c2)ccc1OCC(N)=O | No |
| c1ccc(-c2nn3nnnc3c3ccccc23)cc1 | No |
| COCCCn1c2nc3ccccc3nc2c2c(=O)n(-c3ccccc3OC)cnc21 | No |
| O=C(CCCN1C(=O)c2ccccc2C1=O)Oc1ccc(F)cc1 | Yes |
| COc1cccc(N2CCN(CC(=O)c3c[nH]c4ccc(OC)cc34)CC2C)c1 (stereo not drawn) | Yes |
| COc1nc(Oc2ccc(=O)n(C)n2)nc(N(C)C)n1 | No |
| COC(=O)c1cc(=O)n(Cc2ccc3c(c2)OCO3)c(=Nc2ccccc2)s1 | Yes |
| CCOc1ccccc1NC(=O)C1CCCN(S(=O)(=O)c2cccc3cccnc23)C1 (stereo not drawn) | Yes |
| Cc1noc(/C=C/N(C)C)c1S(=O)(=O)N1CCCC(C(=O)NC2CCCCC2)C1 (stereo not drawn) | Yes |
| Cc1cccc(C)c1-n1nnnc1SCSc1nnnn1-c1c(C)cccc1C | No |
| Cc1nc2sc(C(c3cccc(F)c3)N3CCC(C)CC3)c(O)n2n1 (stereo not drawn) | Yes |

Numbers sourced from PubChem BioAssay.
